# System: PPARg:RXRa IVT, anti-PPARg (NR concentration 270 nM, RXRa partner concentration 90 nM)
# EXPERIMENTAL DETAILS: PBM binding z-score (relative to random genomic background probes); higher = stronger binding; sequences stand for … in GC…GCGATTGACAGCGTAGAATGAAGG
MEASUREMENT KIND: PBM binding z-score
Output spec: single numeric token, no unit.

Here is how some sequences turned out for PBM binding z-score.
[[record]]
residue_string = "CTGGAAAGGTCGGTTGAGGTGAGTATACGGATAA"
measurement_kind = "PBM binding z-score"
numeric_result = 0.957

[[record]]
residue_string = "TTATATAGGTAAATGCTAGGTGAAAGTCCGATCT"
measurement_kind = "PBM binding z-score"
numeric_result = 5.32

[[record]]
residue_string = "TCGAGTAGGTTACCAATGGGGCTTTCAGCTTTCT"
measurement_kind = "PBM binding z-score"
numeric_result = 2.45

[[record]]
residue_string = "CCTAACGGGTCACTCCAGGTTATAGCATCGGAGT"
measurement_kind = "PBM binding z-score"
numeric_result = 2.52

[[record]]
residue_string = "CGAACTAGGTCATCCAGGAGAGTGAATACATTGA"
measurement_kind = "PBM binding z-score"
numeric_result = 8.61


[ask] What does the data say about its PBM binding z-score? Entry: "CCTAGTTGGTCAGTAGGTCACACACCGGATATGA"
[reply] 5.74

[ask] What do we get for "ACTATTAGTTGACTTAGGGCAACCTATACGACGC" ?
[reply] 0.726
